test system: 786-0 (Renal Cancer); assay: NCI one dose, 786-0; format: cell-based, human; conditions: 786-0, 1.00E-5 Molar one dose
assay_metric: Growth Percent (%)
Quick note: give the figure in %, leave out the unit.

Consider the following illustrative entries.
{"record_smiles": "COc1ccc(CNC(=O)[C@@H]2CS[C@H]3c4ccccc4C(=O)N23)cc1", "unit_descriptor": "%", "result": 97.97}
{"record_smiles": "C[C@@]12SC[C@@H](C(=O)NCc3ccccc3Br)N1C(=O)c1ccccc12", "unit_descriptor": "%", "result": 101.65}
{"record_smiles": "C[C@@]12SC[C@@H](C(=O)NCc3ccccc3)N1C(=O)c1ccccc12", "unit_descriptor": "%", "result": 101.14}
{"record_smiles": "O=C(NCc1ccccc1C(F)(F)F)[C@@H]1CS[C@H]2c3ccccc3C(=O)N12", "unit_descriptor": "%", "result": 86.33}
{"record_smiles": "COc1ccc(CNC(=O)[C@@H]2CS[C@@]3(C)c4ccccc4C(=O)N23)cc1OC", "unit_descriptor": "%", "result": 107.06}
{"record_smiles": "C[C@@]12SC[C@@H](C(=O)NCc3cccc(C(F)(F)F)c3)N1C(=O)c1ccccc12", "unit_descriptor": "%", "result": 100.40}
{"record_smiles": "COc1ccccc1CNC(=O)[C@@H]1CS[C@@]2(C)c3ccccc3C(=O)N12", "unit_descriptor": "%", "result": 104.93}
{"record_smiles": "COc1cc(CNC(=O)[C@@H]2CS[C@H]3c4ccccc4C(=O)N23)cc(OC)c1OC", "unit_descriptor": "%", "result": 90.66}

Please find the next compound below.
Please report Growth Percent with 786-0 (Renal Cancer) for item COc1cccc(CNC(=O)[C@@H]2CS[C@@]3(C)c4ccccc4C(=O)N23)c1 .
105.14

====

system: NCI-H522 non-small cell lung cancer cells; assay: NCI cell proliferation, NCI-H522; format: cell-based, human; conditions: Homo sapiens, NCI-H522; 10 µM; read-out: % Cancer cell growth Inhibition (NCI-H522)
Parameter: inhibition at 10 µM. Scope: all listed entries.
Note: unit % is implicit; provide only the numeric part.

Study these solved cases before continuing.
{"record_smiles": "COc1ccc(CNC(=O)[C@@H]2CS[C@H]3c4ccccc4C(=O)N23)cc1OC", "assay_target": "NCI-H522 non-small cell lung cancer cells", "assay_metric": "inhibition at 10 µM", "unit_descriptor": "%", "result": 36}
{"record_smiles": "COc1ccccc1CNC(=O)[C@@H]1CS[C@@]2(C)c3ccccc3C(=O)N12", "assay_target": "NCI-H522 non-small cell lung cancer cells", "assay_metric": "inhibition at 10 µM", "unit_descriptor": "%", "result": 30}
{"record_smiles": "O=C(NCc1ccc(Cl)cc1Cl)[C@@H]1CS[C@H]2c3ccccc3C(=O)N12", "assay_target": "NCI-H522 non-small cell lung cancer cells", "assay_metric": "inhibition at 10 µM", "unit_descriptor": "%", "result": 27}
{"record_smiles": "C[C@@]12SC[C@@H](C(=O)NCc3ccccc3)N1C(=O)c1ccccc12", "assay_target": "NCI-H522 non-small cell lung cancer cells", "assay_metric": "inhibition at 10 µM", "unit_descriptor": "%", "result": 25}

Given COc1ccccc1CNC(=O)[C@@H]1CS[C@H]2c3ccccc3C(=O)N12 , report its inhibition at 10 µM on NCI-H522 non-small cell lung cancer cells.
30

====

Reported Growth Percent values follow for various compounds
test system: A498 (Renal Cancer); assay: NCI one dose, A498; format: cell-based, human; conditions: A498, 1.00E-5 Molar one dose
Form entry: value (%) — number only.

{"record_smiles": "C[C@@]12SC[C@@H](C(=O)NCc3ccccc3C(F)(F)F)N1C(=O)c1ccccc12", "unit_descriptor": "%", "result": 79.95}

Give recorded Growth Percent. C[C@@]12SC[C@@H](C(=O)NCc3cccc(C(F)(F)F)c3)N1C(=O)c1ccccc12
85.48

In one line, give reported Growth Percent of the entry COc1ccc(CNC(=O)[C@@H]2CS[C@@]3(C)c4ccccc4C(=O)N23)cc1OC .
83.43

Answer with the recorded Growth Percent for the compound listed here: O=C(NCc1ccccc1)[C@@H]1CS[C@H]2c3ccccc3C(=O)N12
102.15

Fill in reported Growth Percent for this entry: O=C(NCc1ccccc1C(F)(F)F)[C@@H]1CS[C@H]2c3ccccc3C(=O)N12
98.14

====

molecular target: human farnesyltransferase (FTase) (Homo sapiens, UniProt P49354+P49356); test: FTase inhibitory assay (fluorescence, Dansyl-GCVLS); type: biochemical; settings: human FTase in vitro
pIC50: −log10 of the molar value.
# pIC50 >= 6 gives rule met, anything below gives rule not met

{"compound": "O=C(NCc1ccccc1C(F)(F)F)[C@@H]1CS[C@H]2c3ccccc3C(=O)N12", "assay_target": "human farnesyltransferase (FTase) (Homo sapiens, UniProt P49354+P49356)", "class": "rule met"}
{"compound": "COc1ccccc1CNC(=O)[C@@H]1C[S+]([O-])[C@@]2(C)c3ccccc3C(=O)N12 (some centres unmarked)", "assay_target": "human farnesyltransferase (FTase) (Homo sapiens, UniProt P49354+P49356)", "class": "rule met"}
{"compound": "CCCCCCCCCCCCCC/C(C(=O)O)=C(\\C)C(=O)O [Ref., Chaetomellic acid A, reference compound]", "assay_target": "human farnesyltransferase (FTase) (Homo sapiens, UniProt P49354+P49356)", "class": "rule met"}
{"compound": "COc1ccc(CNC(=O)[C@@H]2CS[C@H]3c4ccccc4C(=O)N23)cc1", "assay_target": "human farnesyltransferase (FTase) (Homo sapiens, UniProt P49354+P49356)", "class": "rule not met"}
{"compound": "COc1ccccc1CNC(=O)[C@@H]1CS(=O)(=O)[C@@]2(C)c3ccccc3C(=O)N12", "assay_target": "human farnesyltransferase (FTase) (Homo sapiens, UniProt P49354+P49356)", "class": "rule met"}

I'd appreciate it if you could say whether COc1ccc(CNC(=O)[C@@H]2CS[C@@]3(C)c4ccccc4C(=O)N23)cc1 has pIC50 at least equal to 6.
rule not met

Can COc1ccc(CNC(=O)[C@@H]2CS[C@@]3(C)c4ccccc4C(=O)N23)cc1OC be said to have pIC50 at or above 6?
rule met

Could you verify whether the entry COc1cc(CNC(=O)[C@@H]2CS[C@@]3(C)c4ccccc4C(=O)N23)cc(OC)c1OC shows pIC50 of no less than 6?
rule not met

====

test system: NCI-H522 non-small cell lung cancer cells; assay: NCI cell proliferation, NCI-H522; assay type: cell-based, human; settings: Homo sapiens, NCI-H522; 10 µM; read-out: % Cancer cell growth Inhibition (NCI-H522)
I would appreciate it if you labelled entries met when inhibition at 10 µM is 20% or higher, otherwise not met.

Please review the entries below; each comes with its answer.
{"record_smiles": "C[C@@]12SC[C@@H](C(=O)NCc3ccccc3C(F)(F)F)N1C(=O)c1ccccc12", "assay_target": "NCI-H522 non-small cell lung cancer cells", "class": "not met"}
{"record_smiles": "C[C@@]12SC[C@@H](C(=O)NCc3ccc(Cl)cc3Cl)N1C(=O)c1ccccc12", "assay_target": "NCI-H522 non-small cell lung cancer cells", "class": "met"}

In plain terms: is recorded inhibition at 10 µM at least 20% for COc1cc(CNC(=O)[C@@H]2CS[C@@]3(C)c4ccccc4C(=O)N23)cc(OC)c1OC ?
met

Is inhibition at 10 µM at least 20%? Consider COc1cccc(CNC(=O)[C@@H]2CS[C@@]3(C)c4ccccc4C(=O)N23)c1
met

Identify whether the reported inhibition at 10 µM of the following molecule is 20% or greater: C[C@@]12SC[C@@H](C(=O)NCc3ccccc3Br)N1C(=O)c1ccccc12
met

====

System: PC-3 (Prostate Cancer)
Assay: NCI one dose, PC-3
Assay type: cell-based, human
Settings: PC-3, 1.00E-5 Molar one dose
Method: 3.4. Cell Proliferation Assay Selected compounds were tested on a panel of 60 human cancer cell lines at the National Cancer Institute (NCI), Germantown, MD, USA. The cytotoxicity studies were conducted using a 48 h exposure protocol using the sulfo-rhodamine B assay.
Output True for Growth Percent not less than 90%; output False otherwise.

Here's what some known entries look like.
{"record_smiles": "COc1ccccc1CNC(=O)[C@@H]1CS[C@@]2(C)c3ccccc3C(=O)N12", "class": "True"}
{"record_smiles": "O=C(NCc1ccc(Cl)cc1Cl)[C@@H]1CS[C@H]2c3ccccc3C(=O)N12", "class": "False"}
{"record_smiles": "O=C(NCc1ccccc1C(F)(F)F)[C@@H]1CS[C@H]2c3ccccc3C(=O)N12", "class": "False"}
{"record_smiles": "COc1ccccc1CNC(=O)[C@@H]1CS[C@H]2c3ccccc3C(=O)N12", "class": "True"}
{"record_smiles": "COc1ccc(CNC(=O)[C@@H]2CS[C@@]3(C)c4ccccc4C(=O)N23)cc1", "class": "True"}

Quick check, Growth Percent >= 90%? C[C@@]12SC[C@@H](C(=O)NCc3ccccc3Br)N1C(=O)c1ccccc12
False

Please indicate if the recorded Growth Percent for COc1cccc(CNC(=O)[C@@H]2CS[C@@]3(C)c4ccccc4C(=O)N23)c1 meets or exceeds 90%.
True

Textbook exercise: given the entry COc1cccc(CNC(=O)[C@@H]2CS[C@H]3c4ccccc4C(=O)N23)c1 , state whether its Growth Percent is greater than or equal to 90%.
True

Given C[C@@]12SC[C@@H](C(=O)NCc3cccc(C(F)(F)F)c3)N1C(=O)c1ccccc12 , state whether its Growth Percent is at least 90%.
True

State whether the measured Growth Percent reaches 90%, counting equality as reaching it, for O=C(NCc1ccccc1)[C@@H]1CS[C@H]2c3ccccc3C(=O)N12
True

I'd appreciate it if you could say whether O=C(NCc1cccc(C(F)(F)F)c1)[C@@H]1CS[C@H]2c3ccccc3C(=O)N12 has Growth Percent at least equal to 90%.
False

Item C[C@@]12SC[C@@H](C(=O)NCc3ccc(Cl)cc3Cl)N1C(=O)c1ccccc12 with Growth Percent of 90% or above?
False

Reported Growth Percent reaches at least 90% for C[C@@]12SC[C@@H](C(=O)NCc3ccccc3C(F)(F)F)N1C(=O)c1ccccc12 ?
False

These entries and their values trace back to paper PMC11855478.
